System: HEK-293T
measurement-notes: Incucyte cell viability with HEK293T; note: unitless GR value; below 1 slowed growth and below 0 cell loss
Assay type: toxicity, cell-based
condition-parameters: human, 18 h, 10 µM, compound concentration 10 uM, replicate number 1
test-readout: Growth Rate

| molecule | measured-target | test-readout | assay-value |
| --- | --- | --- | --- |
| Cc1c(-c2cc(-c3ccccc3Cl)no2)cnn1C1CCNCC1.Cl | HEK-293T | Growth Rate | -0.72 |
| COc1ccccc1[C@@H]1CNCCC12CCN(C(=O)[C@](OC)(c1ccccc1)C(F)(F)F)CC2 | HEK-293T | Growth Rate | 0.28 |
| O=S(=O)(Nc1ccc(C(O)(C(F)(F)F)C(F)(F)F)cc1)c1cccs1 | HEK-293T | Growth Rate | 0.88 |
| Cc1cc(C)nc(Nc2ncc(C(=O)NCCc3c(C)[nH]c4ccccc34)cn2)c1.Cl | HEK-293T | Growth Rate | 0.94 |
| CCc1nc(-c2cccc(C)c2)c(-c2ccncc2)s1 | HEK-293T | Growth Rate | 0.99 |
| Cn1cc(NC(=O)c2ccc3nc4n(c3c2)CCCNC4=O)nc1C(=O)NC1CCCC1 | HEK-293T | Growth Rate | 0.64 |
| O=C(Nc1cc(-c2cn[nH]c2)ccc1N1CCOCC1)c1ccc(-c2ccc3ncccc3c2)o1 | HEK-293T | Growth Rate | 0.02 |
| CCNC1=N[C@@H]2[C@@H](O)[C@H](O)[C@@H](CO)O[C@@H]2S1 | HEK-293T | Growth Rate | 0.78 |
| CC(=O)c1c(C)c2cnc(Nc3ccc(N4CCNCC4)cn3)nc2n(C2CCCC2)c1=O | HEK-293T | Growth Rate | 0.78 |
| CCOC(=O)C1Cc2ccccc2CN1C(=O)c1ccc(SC)s1 (stereo not given) | HEK-293T | Growth Rate | 0.47 |
| COCCNc1cc(NC(=O)N2CCCc3cc(CN4CCN(C)CC4=O)c(C=O)nc32)ncc1C#N | HEK-293T | Growth Rate | 0.87 |
| CN1CCN(c2ccnc(NCCc3ccccc3)n2)CC1 [TP-040n] | HEK-293T | Growth Rate | 0.42 |
| Cc1cc(C)cc(C(=O)NOCCCCCC(=O)NO)c1 | HEK-293T | Growth Rate | 0.12 |
| COc1cc(-c2cc(-c3cccc(O)c3)cnc2N)cc(OC)c1OC | HEK-293T | Growth Rate | -0.43 |
| C[C@@H](CN1CC[C@@]2(C)c3cccc(O)c3C[C@@H]1C2(C)C)OCc1ccccc1.Cl | HEK-293T | Growth Rate | 0.77 |
| O=C(O)Cc1ccc(CCNS(=O)(=O)c2ccc(Cl)cc2)cc1 | HEK-293T | Growth Rate | 0.67 |
| O=C(Nc1ccccc1Br)N[C@@H]1CCN(c2ccc(C(F)(F)F)cn2)C1 | HEK-293T | Growth Rate | 0.32 |
| CC(=O)c1ccc2c(c1)/C(=C(/Nc1cccc(C#N)c1)c1ccc3c(c1)OCCO3)C(=O)N2 | HEK-293T | Growth Rate | -0.15 |
| CC[C@](C)(O)C#Cc1cc2c(ccn2-c2cc(OC)nc(N)n2)cn1 | HEK-293T | Growth Rate | 0.76 |
| CCN1CCN(Cc2ccc(Nc3ncc(F)c(-c4cc(F)c5nc(C)n(C(C)C)c5c4)n3)nc2)CC1 | HEK-293T | Growth Rate | 0.35 |

Where do the numbers come from? From ChEMBL document CHEMBL5303304.
